Origin of measurements: patent US9382208B1

tested.system: rat mGlu2 (Rattus norvegicus, UniProt P31421)
Construct: expressed in transfected cells
Sequence (P31421 19-872): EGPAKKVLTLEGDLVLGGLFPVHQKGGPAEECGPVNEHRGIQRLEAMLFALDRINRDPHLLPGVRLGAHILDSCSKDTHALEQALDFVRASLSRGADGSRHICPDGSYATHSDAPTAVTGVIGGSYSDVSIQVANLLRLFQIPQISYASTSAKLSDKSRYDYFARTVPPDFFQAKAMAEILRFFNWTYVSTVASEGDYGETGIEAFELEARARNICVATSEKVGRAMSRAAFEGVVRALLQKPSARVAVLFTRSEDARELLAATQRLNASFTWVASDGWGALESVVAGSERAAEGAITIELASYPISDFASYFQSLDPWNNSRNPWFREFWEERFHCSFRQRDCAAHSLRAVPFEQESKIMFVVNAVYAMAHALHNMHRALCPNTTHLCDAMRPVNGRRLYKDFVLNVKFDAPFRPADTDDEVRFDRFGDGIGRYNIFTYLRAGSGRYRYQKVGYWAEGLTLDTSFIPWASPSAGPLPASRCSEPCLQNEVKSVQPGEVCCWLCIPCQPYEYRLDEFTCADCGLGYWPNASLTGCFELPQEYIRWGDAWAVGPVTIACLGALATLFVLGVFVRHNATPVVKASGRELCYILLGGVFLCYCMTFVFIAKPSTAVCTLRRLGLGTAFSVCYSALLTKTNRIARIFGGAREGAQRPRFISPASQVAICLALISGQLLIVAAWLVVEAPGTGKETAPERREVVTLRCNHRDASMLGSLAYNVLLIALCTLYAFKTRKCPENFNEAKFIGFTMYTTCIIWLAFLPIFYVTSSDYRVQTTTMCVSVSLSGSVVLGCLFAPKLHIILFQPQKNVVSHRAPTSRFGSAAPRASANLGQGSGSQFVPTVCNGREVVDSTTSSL
procedure.details: mGlu2 Ca2+ flux assay
Format: cell-based
test.context: Gα15 HEK293 cells stably expressing rat mGlu2; glutamate EC80 addition; read-out: rat mGlu2 IC50
quantity.name: IC50 (nM)

P. NC(=O)c1cn(-c2ccc(F)cc2)c2ccc(COc3ccnc(C(F)(F)F)c3)cc2c1=O
Q. C[C@@H]1CN(Cc2cc(F)c3c(c2)c(=O)c(C(N)=O)cn3-c2ccc(F)cc2)C[C@H](C)O1
R. NC(=O)c1cn(-c2ccc(F)cc2)c2ccc(CN3CCC(C(F)(F)F)CC3)cc2c1=O
S. Cc1ncc(CCc2cc3c(=O)c(C(N)=O)cn(-c4ccc(F)cc4)c3cc2F)cn1
# descending IC50 order for the listed compounds List each label, following the requested order. Q, S, R, P
(Q: 4410 nM, S: 2700 nM, R: 823 nM, P: 534 nM)

* * *

tested.system: rat mGlu2 (Rattus norvegicus, UniProt P31421)
Construct: expressed in transfected cells
procedure.details: mGlu2 Ca2+ flux assay
Assay type: cell-based
test.context: amplitude of response in the presence of 30 μM test compound as percentage of maximal response to glutamate; read-out: rat mGlu2 Glu max (%)
quantity.name: remaining activity at 30 µM (%)

NC(=O)c1cn(-c2ccc(F)cc2)c2ccc(N3Cc4cccnc4C3)cc2c1=O [Compound 43] ... 1.85

I. NC(=O)c1cn(-c2ccc(F)cc2)c2ccc(OCc3cccnc3)cc2c1=O [Compound 44]
II. Cc1ncc(Oc2ccc3c(c2)c(=O)c(C(N)=O)cn3-c2ccc(F)cc2)cn1 [Compound 57]
Parameter metric = remaining activity at 30 µM. Return the lower-valued option from I and II . Mark your selection by writing its label. I
(I: 1.67%, II: 15.7%)

P. N#CC1CCN(Cc2ccc3c(c2)c(=O)c(C(N)=O)cn3-c2ccc(F)cc2)CC1 [Compound 75]
Q. NC(=O)c1cn(-c2ccc(F)cc2)c2ccc(Oc3cccnc3)cc2c1=O [Compound 56]
R. NC(=O)c1cn(-c2ccc(F)cc2)c2ccc(CCc3ccccc3)cc2c1=O [Compound 5]
S. NC(=O)c1cn(-c2ccc(F)cc2)c2ccc(Oc3cncc(F)c3)cc2c1=O [Compound 59]
In this exercise, place the 4 compounds in ascending sequence of their recorded remaining activity at 30 µM. List each label, following the requested order. S, P, Q, R
(S: 0.44%, P: 1.02%, Q: 1.84%, R: 4.65%)

* * *

tested.system: rat mGlu2 (Rattus norvegicus, UniProt P31421)
Construct: expressed in transfected cells
procedure.details: mGlu2 Ca2+ flux assay
Assay type: cell-based
test.context: amplitude of response in the presence of 30 μM test compound as percentage of maximal response to glutamate; read-out: rat mGlu2 Glu max (%)
quantity.name: remaining activity at 30 µM (%)

NC(=O)c1cn(-c2ccc(F)cc2)c2c(F)cc(CN3CCC(F)(F)CC3)cc2c1=O ... 5.78
NC(=O)c1cn(-c2ccc(F)cc2)c2ccc(CCc3cccnc3)cc2c1=O ... 1.9
COc1ccc(-n2cc(C(N)=O)c(=O)c3cc(CCc4cnc(C)nc4)ccc32)cc1F ... 1.15
NC(=O)c1cn(-c2ccc(F)cc2)c2ccc(CN3CCCCCC3)cc2c1=O ... 0.96
NC(=O)c1cn(-c2ccc(F)cc2)c2ccc(COc3ccncc3F)cc2c1=O ... 1.83
C[C@H]1CN(Cc2ccc3c(c2)c(=O)c(C(N)=O)cn3-c2ccc(F)cc2)CCO1 ... 1.36
Cc1ncc(CCc2ccc3c(c2)c(=O)c(C(N)=O)cn3-c2ccc(F)cc2)cn1 ... 1.52
NC(=O)c1cn(-c2ccc(F)cc2)c2ccc(CN3CCN(CC(F)(F)F)CC3)cc2c1=O ... 1.19

a. CN(c1ccncc1)c1ccc2c(c1)c(=O)c(C(N)=O)cn2-c1ccc(F)cc1
b. NC(=O)c1cn(-c2ccc(F)cc2)c2ccc(CCc3ccccn3)cc2c1=O
Parameter metric = remaining activity at 30 µM. Return the lower-valued option from a and b . Mark your selection by writing its label. b
